Test system: HeLa
Experiment summary: Primary qHTS to identify gynecologic anti-cancer compounds using libraries of approved drugs and bioactive compounds (AID 1345084); further: nearly all actives have a fitted effect of over 55% in size
Experimental parameters: Gynecologic cancer cell panel viability, ATPlite luminescence, 48 h; series mostly up to 57.5 µM
Results filed as inconclusive are left out. Active and inactive are the calls of the source. The call rests on the fitted dose curve; in most records, active means well fitted cell-killing curve with a large enough effect; inconclusive means small, poorly fitted or top-dose-only effect, or effect the other way; inactive means flat fitted curve, though single readings scatter.
Outcome codes: YES = active, NO = inactive

# Molecule, Class
records = [
    ("CC(C)C[C@H](NC(=O)[C@@H](NC(=O)c1cccc(-c2ccccc2)n1)[C@@H](C)O)B(O)O", "YES"),
    ("CCC[C@H]1C[C@H](C(=O)N[C@@H]([C@@H]2O[C@@H](SC)[C@@H](O)[C@@H](O)[C@@H]2O)[C@H](C)Cl)N(C)C1", "NO"),
    ("CCCCC(=O)O[C@]1(C(=O)CO)[C@@H](C)C[C@H]2[C@@H]3CCC4=CC(=O)C=C[C@]4(C)[C@@]3(F)[C@@H](O)C[C@@]21C", "NO"),
    ("Cc1ncc(-c2ccnc(Nc3ccc(S(C)(=O)=O)cc3)n2)n1C(C)C", "YES"),
    ("CN(C)CC(=O)N1CCC(c2ccc(NC(=O)c3ncc(C#N)[nH]3)c(C3=CCCCC3)c2)CC1", "NO"),
    ("CC(O)(C#Cc1ccc2c(c1)N(c1nc(N)ncc1Cl)CC2)c1nccs1 (stereo not drawn)", "NO"),
    ("COc1ccc(S(=O)(=O)Nc2cccnc2Nc2ccc(O)cc2)cc1", "YES"),
    ("C[C@H](O)[C@@H]1C(=O)N2C(C(=O)O)=C(S[C@@H]3CN[C@H](CNS(N)(=O)=O)C3)[C@@H](C)[C@@H]12", "NO"),
]

====

Experiment summary: Quantitative High-Throughput drug screen in 47 multiple myeloma cell lines against the NCATS MIPE library collection: KMS12PE_JCRB cell viability assay (AID 1918972); further: nearly all actives have a fitted effect of over 30% in size
Experimental parameters: KMS12PE myeloma viability, CellTiter-Glo ATP, 48 h; series mostly up to 45.8 µM
Records with an inconclusive call do not appear. Calls of active or inactive are those of the source. Calls come from the whole dose curve; as a rule, active = well fitted cell-killing curve with a large enough effect; inconclusive = small, poorly fitted or top-dose-only effect, or effect the other way; inactive = no such curve, though single readings can be large or run the other way.
Outcome codes: active, inactive

# Compound, Class
data = [
    ("CNC(=O)c1ccc(Nc2cc(Nc3ccccc3S(=O)(=O)C(C)C)c3cc[nH]c3n2)nc1", "active"),
    ("COc1cccc2c1C(=O)c1c(O)c3c(c(O)c1C2=O)C[C@@](O)(C(=O)CO)C[C@@H]3O[C@H]1C[C@H](N)[C@@H](O)[C@H](C)O1", "active"),
    ("CC(=O)N1CCN(c2ccc(OCc3nn(C)c(C)c3-c3cccc4c(CCCOc5cccc6ccccc56)c(C(=O)O)n(Cc5cccnc5)c34)cc2)CC1", "active"),
    ("CC1=C(C(=O)Nc2cc3cn[nH]c3cc2F)C(c2ccc(Cl)cc2F)N=C(c2ccnc(Cl)c2)N1 (stereo not drawn)", "active"),
    ("O=C1NC(O)CCN1[C@@H]1O[C@H](CO)[C@H](O)[C@H]1O (stereo partly drawn)", "inactive"),
    ("CN(C)CCN1C(=O)c2cccc3cc(N)cc(c23)C1=O", "active"),
    ("CC(=O)OCC(=O)[C@@]12N=C(C)O[C@H]1C[C@H]1[C@@H]3CCC4=CC(=O)C=C[C@]4(C)[C@@H]3[C@@H](O)C[C@@]12C", "inactive"),
    ("O=C(O)C(=O)Nc1cccc(C2=NN=N[N]2)c1", "inactive"),
]
